Cited source for all entries: patent US4338320A

Kindly state LD50 for each of the entries shown.
experiment.notes: Lethal dose in mice (dose probit curve)
Format: in vivo
condition.context: mouse, in vivo; mice; from dose probit curve
Param answer (str): number followed by unit.

- compound: "C=C[C@H]1C[N@@]2CC[C@H]1C[C@@H]2[C@@H](O)c1ccnc2ccc(OC)cc12 [Quinidine, reference compound]"
  LD50: "202 mg/kg"

Let us move to another entry and its LD50.
# input compound: C=CC1CN2CCC1CC2C(O)c1ccnc2ccc(O)cc12 (centres unmarked) [Cupreidine, 6'-hydroxycinchonine] ; wanted: its LD50
304 mg/kg
